B1: Pistol ribozyme (parent)
chain: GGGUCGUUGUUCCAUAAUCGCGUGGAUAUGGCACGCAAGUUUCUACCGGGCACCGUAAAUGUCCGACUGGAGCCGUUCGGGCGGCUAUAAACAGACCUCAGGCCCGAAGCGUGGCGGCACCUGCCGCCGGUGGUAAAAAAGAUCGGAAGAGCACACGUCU

- Variants of: B1
- test_protocol: aptazyme ON/OFF ratio, guanine; higher = stronger switching; co-transcriptional cleavage with and without guanine
Field: aptazyme ON/OFF ratio. Provide a value for each of the variants that follow.
Just the number, please, no unit attached.

State its aptazyme ON/OFF ratio for this variant: U8A G9A U10C U11A C12U C13G 1.21

State its aptazyme ON/OFF ratio for this variant: U7G U8C U11A C12A C13G 1.1

State its aptazyme ON/OFF ratio for this variant: U7A U11C C12A C13G 1.22

State its aptazyme ON/OFF ratio for this variant: U8A G9U U11C C12U C13A 1.2

State its aptazyme ON/OFF ratio for this variant: U7G G9U U10G C12A C13U 1.41

State its aptazyme ON/OFF ratio for this variant: U7C U8C U10C U11G C12U C13A 1.28

State its aptazyme ON/OFF ratio for this variant: U7A U8C U10A U11G C13G 1.24

State its aptazyme ON/OFF ratio for this variant: U8G G9C U10A U11A C12A C13G 1.09

State its aptazyme ON/OFF ratio for this variant: U7C G9A C12G C13A 1.18

State its aptazyme ON/OFF ratio for this variant: U8G G9C U11G C12G C13G 1.07

State its aptazyme ON/OFF ratio for this variant: U7C U8G G9A U10A U11G C13A 1.2

State its aptazyme ON/OFF ratio for this variant: U7G U8A G9A U11A C12G C13A 1.17

State its aptazyme ON/OFF ratio for this variant: U7G U8G G9C U10G U11A C12A C13A 1.14

State its aptazyme ON/OFF ratio for this variant: U7G U8A G9U U10C U11C C12G C13G 1.06

State its aptazyme ON/OFF ratio for this variant: G9U U11C C12U C13A 1.51

State its aptazyme ON/OFF ratio for this variant: U10G U11A C12G 1.4

State its aptazyme ON/OFF ratio for this variant: U7C U8C G9U U10C U11A C12G C13G 1.15

State its aptazyme ON/OFF ratio for this variant: U7A U8G U10G U11A C13G 1.27

State its aptazyme ON/OFF ratio for this variant: U7C U8A G9C U10C U11A C12U C13G 1.05

State its aptazyme ON/OFF ratio for this variant: U8C G9A U10G C12U C13A 1.19

State its aptazyme ON/OFF ratio for this variant: U7G U8G G9U C12G C13U 1.27

State its aptazyme ON/OFF ratio for this variant: U7A U8A G9U U10G U11G C13G 1.3
